# Tested on: K562
# Assay overview: Cytotoxicity against human K562 cells after 48 hrs by SRB assay
# Assay type: functional
# Measurement context: K562, 48 h
Items are presented alongside their recorded GI50.

[
  {
    "Compound": "COc1ccc(C2CC(c3cccc(Nc4ccnc5cc(Cl)ccc45)c3)=NN2C=O)cc1 (stereo not given)",
    "GI50 / nM": 290
  },
  {
    "Compound": "COc1cccc2c1C(=O)c1c(O)c3c(c(O)c1C2=O)C[C@@](O)(C(=O)CO)C[C@@H]3O[C@H]1C[C@H](N)[C@H](O)[C@H](C)O1 [DOXORUBICIN]",
    "GI50 / nM": 190
  },
  {
    "Compound": "O=CN1N=C(c2cccc(Nc3ccnc4cc(Cl)ccc34)c2)CC1c1ccc(Cl)cc1 (stereo not given)",
    "GI50 / nM": 410
  },
  {
    "Compound": "O=CN1N=C(c2cccc(Nc3ccnc4cc(Cl)ccc34)c2)CC1c1ccccc1 (stereo not given)",
    "GI50 / nM": 260
  },
  {
    "Compound": "COc1cc(C2CC(c3cccc(Nc4ccnc5cc(Cl)ccc45)c3)=NN2C=O)cc(OC)c1OC (stereo not given)",
    "GI50 / nM": 430
  }
]
